Below, each entry is listed with its recorded hERG current change (%, negative = inhibition) at 1uM.
target: human ether-à-go-go-related gene (hERG) potassium channel (human); experiment: primary screen, population patch clamp on CHO cells stably expressing hERG; higher = less effect of the substance
The whole screen tested about 310,000 compounds, of which about 2,200 (0.71%) showed an effect of 50% or more. The effect is printed as a negative number. For the sample, strong results were picked, then their nearest neighbours and some compounds at random.
Write the answer as a number in %, unit excluded.

The following molecules have reported results that may help.
>>> measured_value("CC(C)CC(=O)N1CCC(N(CCc2ccccc2)Cc2ccccc2)CC1.O=C(O)C(=O)O")
7.09
>>> measured_value("O=C(c1nn(Cc2ccccc2)c(=O)c2ccccc12)N1CCN(c2ccccn2)CC1")
-14.5
>>> measured_value("NC(=O)CSc1nnc(CNc2ccc(F)cc2)n1CC1CCCO1 (stereo not drawn)")
-1.77
>>> measured_value("CCOC(=O)C1CCN(C(=O)c2cc3c(C)cc(C)cc3[nH]2)CC1")
12
>>> measured_value("O=C(c1nn(Cc2ccccc2)c(=O)c2ccccc12)N1CCN(C/C=C/c2ccccc2)CC1")
-38.3

Sample O=C(NS(=O)(=O)c1ccccc1)c1ccccc1O — what was its hERG current change (%, negative = inhibition) at 1uM?
0.636

Sample CCOC(=O)C1(CCCc2ccccc2)CCN(Cc2ccn[nH]2)CC1 — what was its hERG current change (%, negative = inhibition) at 1uM?
-27.8

* * *

Below, each entry is listed with its recorded hERG current change (%, negative = inhibition) at 1uM.
target: human ether-à-go-go-related gene (hERG) potassium channel (human, UniProt Q12809); assay: primary screen, population patch clamp on CHO cells stably expressing hERG; higher = less effect of the substance
Sequence (Q12809 whole entry, looked up): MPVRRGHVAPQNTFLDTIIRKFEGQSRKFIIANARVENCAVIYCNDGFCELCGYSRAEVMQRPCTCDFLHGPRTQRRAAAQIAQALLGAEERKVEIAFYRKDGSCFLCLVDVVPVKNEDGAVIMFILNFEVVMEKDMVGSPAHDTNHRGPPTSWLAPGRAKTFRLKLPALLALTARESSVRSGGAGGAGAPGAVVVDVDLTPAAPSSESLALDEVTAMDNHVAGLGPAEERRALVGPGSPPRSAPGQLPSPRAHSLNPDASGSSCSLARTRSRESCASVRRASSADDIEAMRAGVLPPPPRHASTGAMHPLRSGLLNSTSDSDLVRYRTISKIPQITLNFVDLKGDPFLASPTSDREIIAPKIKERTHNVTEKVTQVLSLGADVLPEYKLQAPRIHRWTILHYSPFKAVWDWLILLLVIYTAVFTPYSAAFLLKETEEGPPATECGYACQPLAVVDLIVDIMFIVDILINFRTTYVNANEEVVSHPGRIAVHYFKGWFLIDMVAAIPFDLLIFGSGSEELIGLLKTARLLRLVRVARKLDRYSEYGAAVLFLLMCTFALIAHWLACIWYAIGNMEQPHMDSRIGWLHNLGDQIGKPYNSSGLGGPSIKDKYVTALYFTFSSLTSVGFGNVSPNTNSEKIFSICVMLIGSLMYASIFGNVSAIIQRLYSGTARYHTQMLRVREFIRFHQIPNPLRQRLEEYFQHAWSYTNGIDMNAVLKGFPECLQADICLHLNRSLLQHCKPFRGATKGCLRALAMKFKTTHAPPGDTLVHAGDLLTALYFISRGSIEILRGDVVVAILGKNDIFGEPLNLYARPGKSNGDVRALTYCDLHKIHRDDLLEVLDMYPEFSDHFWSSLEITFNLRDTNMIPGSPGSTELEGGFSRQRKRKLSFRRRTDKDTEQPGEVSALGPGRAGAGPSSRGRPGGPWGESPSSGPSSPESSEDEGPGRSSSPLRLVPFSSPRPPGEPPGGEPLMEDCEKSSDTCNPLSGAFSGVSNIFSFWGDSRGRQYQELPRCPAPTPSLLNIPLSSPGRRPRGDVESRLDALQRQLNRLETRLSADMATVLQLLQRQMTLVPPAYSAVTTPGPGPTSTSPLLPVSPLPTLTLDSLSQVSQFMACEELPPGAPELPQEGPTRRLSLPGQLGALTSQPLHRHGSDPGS
About 2,200 (0.71%) of roughly 310,000 compounds showed an effect of 50% or more. The effect is printed as a negative number. Many of the other results were omitted from the sample, so strong results are more common in it than they were.
Write the answer as a number in %, unit excluded.

>>> measured_value("c1ccc(CSc2ncnc3c2oc2ccccc23)cc1")
9.56
>>> measured_value("Clc1ccc2c(c1)C(c1ccccc1Cl)=NCc1nnc(N3CCN(CCSc4ccccc4)CC3)n1-2.O.O=C(O)/C=C/C(=O)O")
-10.8
>>> measured_value("O=C1NC(=S)N(c2ccccc2)C(=O)/C1=C/c1ccco1")
5.88

Now, please, on to the next compound.
Tell me reported hERG current change (%, negative = inhibition) at 1uM for COCCCN1CCN(c2nnc3n2-c2sc(Br)cc2C(c2ccccc2Cl)=NC3)CC1.CS(=O)(=O)O , tested with human ether-à-go-go-related gene (hERG) potassium channel (human, UniProt Q12809).
-11.9

* * *

Below, each entry is listed with its recorded hERG current change (%, negative = inhibition) at 1uM.
molecular target: human ether-à-go-go-related gene (hERG) potassium channel (human); experiment: primary screen, population patch clamp on CHO cells stably expressing hERG; higher = less effect of the substance
The whole screen tested about 310,000 compounds, of which about 2,200 (0.71%) showed an effect of 50% or more. Effects have a minus sign here. The entries come from a sample that favours strong results as a whole.
Write the answer as a number in %, unit excluded.

The following molecules have reported results that may help.
>>> measured_value("CC1(C)C([N+](=O)[O-])C(c2ccc(O)cc2)NC(c2ccc(O)cc2)C1[N+](=O)[O-] (centres unmarked)")
10.3
>>> measured_value("CCc1ccccc1NC(=O)CN1CCN(C(=O)C2CCN(C(=O)/C=C/c3ccccc3)CC2)CC1")
-74.5
>>> measured_value("COCCNCCOc1ccc(C(C)(C)c2ccccc2)cc1.O=C(O)C(=O)O")
-2.39
>>> measured_value("CN1CCN(C(=O)c2ccc(Oc3ccc([N+](=O)[O-])cc3)cc2)CC1")
-11.7
>>> measured_value("Cc1ccc(C(=O)Nc2cccc(-c3ccc(N4CCOCC4)nn3)c2)cc1")
4.57

Sample COC(=O)c1cc2occc2n1CC(=O)Nc1ccc(OC)c(OC)c1OC — what was its hERG current change (%, negative = inhibition) at 1uM?
11.1

Sample O=c1cc(-c2ccccc2F)oc2ccccc12 — what was its hERG current change (%, negative = inhibition) at 1uM?
2.56

Sample C/C=C(/C)C(=O)OC1c2c(ccc3ccc(=O)oc23)OC(C)(C)C1OC(C)=O (centres unmarked) — what was its hERG current change (%, negative = inhibition) at 1uM?
-36.9

Sample O=C(c1cc2c([nH]c1=O)CCCC2)N1CCc2c([nH]c3ccccc23)C1c1ccccc1F (centres unmarked) — what was its hERG current change (%, negative = inhibition) at 1uM?
7.44

Sample COc1ccc(C(=O)N/N=C/c2ccc(OC)c(CN3CCCc4ccccc43)c2)cc1 — what was its hERG current change (%, negative = inhibition) at 1uM?
-6.65

Sample Cc1cccn2c(=O)c3cc(C(=O)NCC4CCCO4)c(=N)n(CCc4ccccc4)c3nc12 (centres unmarked) — what was its hERG current change (%, negative = inhibition) at 1uM?
-84.4

Sample Cc1cccc(NC(=O)CN2CCN(C(=O)C3CCC3)CC2)c1C — what was its hERG current change (%, negative = inhibition) at 1uM?
-7.56

Sample COC(=O)C1CCN(C(=O)/C=C/c2ccccc2)CC1 — what was its hERG current change (%, negative = inhibition) at 1uM?
11.1

Sample Cc1cccc(NC(=O)CN2CCN(C(=O)C3CCN(C(=O)/C=C/c4ccccc4)CC3)CC2)c1C — what was its hERG current change (%, negative = inhibition) at 1uM?
-56.6

Sample Cc1sc2ncn(CC(=O)N3CCC(C(N)=O)CC3)c(=O)c2c1S(=O)(=O)N1CCOCC1 — what was its hERG current change (%, negative = inhibition) at 1uM?
10.1

Sample COc1ccc(/C=N/NC(=O)c2ccc(F)cc2)cc1CN1CCc2cc(OC)c(OC)cc2C1C (centres unmarked) — what was its hERG current change (%, negative = inhibition) at 1uM?
-99.1

Sample Cc1cccc(NC(=O)CN2CCN(C(=O)C3CCCO3)CC2)c1C (centres unmarked) — what was its hERG current change (%, negative = inhibition) at 1uM?
5.32

Sample CN(C)CCCNC(=O)/C(=C\c1ccc(-c2cccc([N+](=O)[O-])c2)o1)NC(=O)c1ccccc1 — what was its hERG current change (%, negative = inhibition) at 1uM?
-77.9

* * *

Below, each entry is listed with its recorded hERG current change (%, negative = inhibition) at 1uM.
target: human ether-à-go-go-related gene (hERG) potassium channel (human); assay: primary screen, population patch clamp on CHO cells stably expressing hERG; higher = less effect of the substance
In all, about 310,000 compounds went through this assay and about 2,200 (0.71%) showed an effect of 50% or more. The effect is printed as a negative number. Only a selection was taken, and strong results are over-represented in it overall.
Write the answer as a number in %, unit excluded.

The following compounds have reported results that may help.
>>> measured_value("OCCCNc1ncnc2sc3c(c12)CCN(Cc1ccccc1)C3")
7.54
>>> measured_value("c1csc(CN2CCN(Cc3cccs3)C2c2cccs2)c1")
4.62
>>> measured_value("COc1ccc(CC(NC(C)=O)C(=O)NC2CCN(C(=O)Nc3ccc(Cl)cc3)CC2)cc1OC (centres unmarked)")
10.2
>>> measured_value("CCN(CC)S(=O)(=O)c1cccc(C(=O)Oc2cccc(NC(=O)c3cccs3)c2)c1")
7.05

Sample O=C(O)CC(c1cccc(O)c1)N1Cc2ccccc2C1=O (centres unmarked) — what was its hERG current change (%, negative = inhibition) at 1uM?
12

* * *

biological target: human ether-à-go-go-related gene (hERG) potassium channel (human, UniProt Q12809); assay: primary screen, population patch clamp on CHO cells stably expressing hERG; higher = less effect of the substance
Out of some 310,000 compounds screened, about 2,200 (0.71%) showed an effect of 50% or more. Effects have a minus sign here. The sample as a whole holds a higher share of strong results than the screen did.
Please enter label 1 where hERG current change (%, negative = inhibition) at 1uM is greater than or equal to 10%, and label 0 where it is lower.

>>> qualitative_label("CCOc1ccc(NC(C)=O)cc1[N+](=O)[O-]")
"label 0"

Entry CCCOc1ccc(N2CC(C(=O)NC3=NCCS3)CC2=O)cc1 (centres unmarked) : is its hERG current change (%, negative = inhibition) at 1uM no less than 10%?
label 0

Entry CC(C)(C)C(=O)N1CCN(c2ccnc3cc(Cl)ccc23)CC1 : is its hERG current change (%, negative = inhibition) at 1uM no less than 10%?
label 0

* * *

biological target: human ether-à-go-go-related gene (hERG) potassium channel (human); experiment: primary screen, population patch clamp on CHO cells stably expressing hERG; higher = less effect of the substance
The whole screen tested about 310,000 compounds, of which about 2,200 (0.71%) showed an effect of 50% or more. The effect is printed as a negative number. What follows is part of a selection rich in strong results, with near analogues and random picks from the rest.
Please enter yes (1) where hERG current change (%, negative = inhibition) at 1uM is greater than or equal to -70%, and no (0) where it is lower.

Below, 4 compounds whose answers are already recorded.
>>> qualitative_label("COc1ccc(Nc2nnc(Cc3ccncc3)c3ccccc23)c(OC)c1")
"yes (1)"
>>> qualitative_label("COc1ccc(Nc2nnc(Cc3ccccc3)c(=O)[nH]2)c(OC)c1")
"yes (1)"
>>> qualitative_label("CCOC(=O)c1c(CSc2ccsc2)n(C)c2cc(Br)c(O)c(CN(C)C)c12.Cl")
"no (0)"
>>> qualitative_label("CCOC(=O)c1c(CSc2ccccc2)n(C)c2cc(Br)c(O)c(CN(C)C)c12")
"yes (1)"

From here, focus on the item given below.
Entry CCOC(=O)c1c(CSc2ccc(C)cc2)n(C)c2cc(Br)c(O)c(CN(C)C)c12.Cl.O : is its hERG current change (%, negative = inhibition) at 1uM no less than -70%?
yes (1)
